target.or.system: T1, Bfl-1, Q16548
T1 chain: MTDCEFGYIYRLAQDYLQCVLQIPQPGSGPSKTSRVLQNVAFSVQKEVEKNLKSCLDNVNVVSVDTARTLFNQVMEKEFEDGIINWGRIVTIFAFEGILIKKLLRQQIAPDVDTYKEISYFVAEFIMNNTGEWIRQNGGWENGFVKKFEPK
test.details: fluorescence polarisation, direct titration of receptor into 10 nM labelled peptide
pKd: −log10 of the molar value.
Listed here: items and their measured pKd.

- binder: "ADAIRPRCVELRHLCDDFINGNKKKW [MCF2L2]"
  relation: "<"
  pKd: 5.47
- binder: "SWFIQSLCAMLKQYADKLEFMHILTR [CASP3]"
  relation: "="
  pKd: 7.37
- binder: "ATKRETAATFLKKVAKEFGFQNNGFS [NPLOC4]"
  relation: "<"
  pKd: 5.33
- binder: "AELRLFLAQRLRWLCDSCPASRATCV [NBEAL2]"
  relation: "="
  pKd: 5.49
